- ASSAY_INFO: Biodistribution in BxPC3-luc tumor-bearing mice
- Format: in vivo, BALB/c nu/nu mice
- EXPERIMENTAL_CONDITIONS: female, BALB/c nu/nu, mouse, kidney, iv, 74 kBq, total radioactivity; 1 h post-injection, i.v.; read-out: Biodistribution, Kidney
Where a SMILES comes first, the peptide text is derived from it. The star is where a group is joined. DOTA = O=C(O)CN1CCN(CC(=O)O)CCN(CC(=O)*)CCN(CC(=O)O)CC1; AEEA = NCCOCCOCC(=O)O
MEASURED_METRIC: tissue uptake at 1 h (%ID/g)
Answer in %ID/g, number only, no unit symbol.

Using the record for CC[C@H](C)[C@H](NC(=O)COCCOCCNC(=O)CN1CCN(CC(=O)O)CCN(CC(=O)O)CCN(CC(=O)O)CC1)C(=O)N1CCC[C@H]1C(=O)N[C@@H](CC(C)C)C(=O)N1CCC[C@H]1C(=O)N1CCC[C@H]1C(=O)N1CCC[C@H]1C(=O)N[C@@H](CCCNC(=N)N)C(=O)N[C@@H](CCCNC(=N)N)C(=O)N1CCC[C@H]1C(=O)N[C@@H](Cc1ccccc1)C(=O)N[C@@H](Cc1ccccc1)C(=O)N[C@@H](CCCCN)C(=O)O [[^67Ga]27, [^67Ga]Ga-DOTA-EG2-IPLPPPRRPFFK, metal not drawn] ({DOTA-AEEA}-IPLPPPRRPFFK-OH) , report its tissue uptake at 1 h.
3.07
